test: Half life in Sprague-Dawley rat at 25 mg/kg, po; type: ADME, organism-based; conditions: in vivo
quantity_measured: half-life (h)

{"smiles": "CC(C)(C)c1cc(NC(=O)Nc2ccc(-c3cn(-c4ccc(OCCN5CCOCC5)cc4Cl)nn3)cc2)no1", "quantity_measured": "half-life", "recorded_value": 6.77}

----------
test: in vitro; settings: mouse, BaF3 cells
Description: Cytotoxicity against human BAF3 cells assessed as growth inhibition incubated for 72 hrs by CCK8 assay
Each entry below lists one item and its recorded GI50 at 72 h value.

{"smiles": "Cc1cc(-n2cc(-c3ccc(NC(=O)Nc4cc(C(C)(C)C)on4)cc3)nn2)ccc1OCCN1CCOCC1", "qualifier_sign": "=", "GI50 at 72 h / µM": 1.97}
{"smiles": "COc1cc(-n2cc(-c3ccc(NC(=O)Nc4cc(C(C)(C)C)on4)cc3)nn2)ccc1OCCN1CCOCC1", "qualifier_sign": ">", "GI50 at 72 h / µM": 3}
{"smiles": "CC(C)(C)c1cc(NC(=O)Nc2ccc(-c3cn(-c4ccc(OCCN5CCOCC5)cc4Cl)nn3)cc2)no1", "qualifier_sign": ">", "GI50 at 72 h / µM": 3}
{"smiles": "CC(C)(C)c1cc(NC(=O)Nc2ccc(-c3cn(-c4ccc(OCCCN5CCOCC5)cc4Cl)nn3)cc2)no1", "qualifier_sign": ">", "GI50 at 72 h / µM": 3}
{"smiles": "CC(C)(C)c1cc(NC(=O)Nc2ccc(-c3cn(-c4ccc(OCCN5CCOCC5)cc4)nn3)c(F)c2)no1", "qualifier_sign": ">", "GI50 at 72 h / µM": 3}
{"smiles": "CC(C)(C)c1cc(NC(=O)Nc2ccc(-c3cn(-c4ccc(OCCN5CCOCC5)cc4Br)nn3)cc2)no1", "qualifier_sign": "=", "GI50 at 72 h / µM": 2.02}
{"smiles": "CC(C)(C)c1cc(NC(=O)Nc2ccc(-c3cn(-c4ccc(OCCN5CCCC5)cc4Cl)nn3)cc2)no1", "qualifier_sign": "=", "GI50 at 72 h / µM": 2.04}
{"smiles": "CC(C)(C)c1cc(NC(=O)Nc2ccc(-c3cn(-c4ccc(OCCN5CCOCC5)cc4)nn3)cc2Cl)no1", "qualifier_sign": ">", "GI50 at 72 h / µM": 3}
{"smiles": "Cc1cc(-c2cn(-c3ccc(OCCN4CCOCC4)cc3)nn2)ccc1NC(=O)Nc1cc(C(C)(C)C)on1", "qualifier_sign": "=", "GI50 at 72 h / µM": 2.16}
{"smiles": "CC(C)(C)c1cc(NC(=O)Nc2ccc(-c3cn(-c4ccc(OCCN5CCOCC5)cc4)nn3)cc2)no1", "qualifier_sign": ">", "GI50 at 72 h / µM": 3}
{"smiles": "CC(C)(C)c1cc(NC(=O)Nc2ccc(-c3cn(-c4ccc(OCCN5CCOCC5)c(Cl)c4)nn3)cc2)no1", "qualifier_sign": "=", "GI50 at 72 h / µM": 1.38}
{"smiles": "CC(C)(C)c1cc(NC(=O)Nc2ccc(-c3cn(-c4ccc(OCCN5CCOCC5)cc4)nn3)cc2F)no1", "qualifier_sign": ">", "GI50 at 72 h / µM": 3}
{"smiles": "CC(C)(C)c1cc(NC(=O)Nc2ccc(-c3cn(-c4ccc(OCCN5CCOCC5)c(C(F)(F)F)c4)nn3)cc2)no1", "qualifier_sign": "=", "GI50 at 72 h / µM": 1.53}
{"smiles": "COc1cc(-c2cn(-c3ccc(OCCN4CCOCC4)cc3)nn2)ccc1NC(=O)Nc1cc(C(C)(C)C)on1", "qualifier_sign": "=", "GI50 at 72 h / µM": 1.51}
{"smiles": "CC(C)(C)c1cc(NC(=O)Nc2ccc(-c3cn(-c4ccc(OCCN5CCOCC5)c([N+](=O)[O-])c4)nn3)cc2)no1", "qualifier_sign": ">", "GI50 at 72 h / µM": 3}
{"smiles": "CN(C)CCOc1ccc(-n2cc(-c3ccc(NC(=O)Nc4cc(C(C)(C)C)on4)cc3)nn2)c(Cl)c1", "qualifier_sign": ">", "GI50 at 72 h / µM": 3}
{"smiles": "CC(C)(C)c1cc(NC(=O)Nc2ccc(-c3cn(-c4ccc(OCCN5CCOCC5)cc4F)nn3)cc2)no1", "qualifier_sign": ">", "GI50 at 72 h / µM": 3}
{"smiles": "CC(C)(C)c1cc(NC(=O)Nc2ccc(-c3cn(-c4ccc(OCCN5CCOCC5)cc4C(F)(F)F)nn3)cc2)no1", "qualifier_sign": ">", "GI50 at 72 h / µM": 3}
{"smiles": "CC(C)(C)c1cc(NC(=O)Nc2ccc(-c3cn(-c4ccc(OCCN5CCCCC5)cc4Cl)nn3)cc2)no1", "qualifier_sign": "=", "GI50 at 72 h / µM": 1.96}
{"smiles": "CC(C)(C)c1cc(NC(=O)Nc2ccc(-c3cn(-c4ccc(OCCN5CCOCC5)cc4)nn3)c(Cl)c2)no1", "qualifier_sign": ">", "GI50 at 72 h / µM": 3}
